# Assay System: T1, XPC4 meganuclease (I-CreI-derived) (Artificial Sequence)
# T1 chain: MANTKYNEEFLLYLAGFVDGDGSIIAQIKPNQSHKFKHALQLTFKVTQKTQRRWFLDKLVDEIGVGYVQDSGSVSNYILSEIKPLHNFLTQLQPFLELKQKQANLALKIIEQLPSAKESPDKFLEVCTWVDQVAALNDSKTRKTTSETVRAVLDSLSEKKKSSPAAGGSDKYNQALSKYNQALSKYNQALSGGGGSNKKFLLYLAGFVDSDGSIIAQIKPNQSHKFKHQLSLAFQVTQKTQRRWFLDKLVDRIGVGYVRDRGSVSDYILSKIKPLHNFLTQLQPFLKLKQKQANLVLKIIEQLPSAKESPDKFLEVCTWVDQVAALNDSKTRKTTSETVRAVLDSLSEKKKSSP
# Procedure Text: FP; 10 mM CaCl2, 150 mM NaCl, pH8, 25 C; not significantly different from unmethylated
Readout Kind: pKd
For clarity, pKd is expressed as the negative log10 of concentration in mol/L.

Assign pKd to the following record: XPC4.1_Me -11a/-10b & +10a/+11b (dsDNA, 5mC at -11a, -10b, +10a, +11b) DNA 1: TCGAGATGTCACACAGAGGTACGA DNA 2: TCGTACCTCTGTGTGACATCTCGA
6.90
